tested on: mice bearing PSMA-expressing LNCAP cancer xenografts; assay: Biodistribution of 68Ga-labeled compounds; format: in vivo; conditions: 3 h post-injection

| COMPOUND | Pancreas uptake |
| --- | --- |
| Nc1ccc(CCCC(=O)NCC(=O)N[C@@H](CCCCNC(=O)CN2CCN(CC(=O)[O-])CCN(CC(=O)[O-])CCN(CC(=O)[O-])CC2)C(=O)NC[C@H]2CC[C@H](C(=O)N[C@@H](Cc3ccc4ccccc4c3)C(=O)NCCCC[C@H](NC(=O)N[C@@H](CCC(=O)O)C(=O)O)C(=O)O)CC2)cc1.[68Ga+3] [^68Ga-HTK03087] | 0.14 ± 0.03 % ID/g |
| O=C([O-])CN1CCN(CC(=O)[O-])CCN(CC(=O)NCCCC[C@H](NC(=O)CNC(=O)CCCc2ccc(I)cc2)C(=O)NC[C@H]2CC[C@H](C(=O)N[C@@H](Cc3ccc4ccccc4c3)C(=O)NCCCC[C@H](NC(=O)N[C@@H](CCC(=O)O)C(=O)O)C(=O)O)CC2)CCN(CC(=O)[O-])CC1.[68Ga+3] [^68Ga-HTK03024] | 1.86 ± 0.20 % ID/g |
| Cc1ccc(CCCC(=O)NCC(=O)N[C@@H](CCCCNC(=O)CN2CCN(CC(=O)[O-])CCN(CC(=O)[O-])CCN(CC(=O)[O-])CC2)C(=O)NC[C@H]2CC[C@H](C(=O)N[C@@H](Cc3ccc4ccccc4c3)C(=O)NCCCC[C@H](NC(=O)N[C@@H](CCC(=O)O)C(=O)O)C(=O)O)CC2)cc1.[68Ga+3] [^68Ga-HTK03090] | 1.27 ± 0.13 % ID/g |
| O=C([O-])CN1CCN(CC(=O)[O-])CCN(CC(=O)NCCCC[C@H](NC(=O)CNC(=O)CCCc2ccc([N+](=O)[O-])cc2)C(=O)NC[C@H]2CC[C@H](C(=O)N[C@@H](Cc3ccc4ccccc4c3)C(=O)NCCCC[C@H](NC(=O)N[C@@H](CCC(=O)O)C(=O)O)C(=O)O)CC2)CCN(CC(=O)[O-])CC1.[68Ga+3] [^68Ga-HTK03089] | 0.47 ± 0.07 % ID/g |
| O=C([O-])CN1CCN(CC(=O)[O-])CCN(CC(=O)NCCCC[C@H](NC(=O)CNC(=O)CCc2ccccc2)C(=O)NC[C@H]2CC[C@H](C(=O)N[C@@H](Cc3ccc4ccccc4c3)C(=O)NCCCC[C@H](NC(=O)N[C@@H](CCC(=O)O)C(=O)O)C(=O)O)CC2)CCN(CC(=O)[O-])CC1.[68Ga+3] [^68Ga-HTK03082] | 0.09 ± 0.03 % ID/g |
| O=C([O-])CN1CCN(CC(=O)[O-])CCN(CC(=O)NCCCC[C@H](NC(=O)CNC(=O)CCCc2ccc(Cl)cc2)C(=O)NC[C@H]2CC[C@H](C(=O)N[C@@H](Cc3ccc4ccccc4c3)C(=O)NCCCC[C@H](NC(=O)N[C@@H](CCC(=O)O)C(=O)O)C(=O)O)CC2)CCN(CC(=O)[O-])CC1.[68Ga+3] [^68Ga-HTK03055] | 1.74 ± 0.30 % ID/g |
| O=C([O-])CN1CCN(CC(=O)[O-])CCN(CC(=O)NCC2CCC(C(=O)NC(Cc3c4ccccc4cc4ccccc34)C(=O)NCCCCC(NC(=O)NC(CCC(=O)O)C(=O)O)C(=O)O)CC2)CCN(CC(=O)[O-])CC1.[68Ga+3] (stereo not shown) [^68Ga-HTK03041] | 0.71 ± 0.12 % ID/g |
